From: patent US20230061736A1

Reported values of pEC50 for individual entries
# TARGET_SYSTEM: UniProt Q8TDV5
# Sequence (Q8TDV5 1-335): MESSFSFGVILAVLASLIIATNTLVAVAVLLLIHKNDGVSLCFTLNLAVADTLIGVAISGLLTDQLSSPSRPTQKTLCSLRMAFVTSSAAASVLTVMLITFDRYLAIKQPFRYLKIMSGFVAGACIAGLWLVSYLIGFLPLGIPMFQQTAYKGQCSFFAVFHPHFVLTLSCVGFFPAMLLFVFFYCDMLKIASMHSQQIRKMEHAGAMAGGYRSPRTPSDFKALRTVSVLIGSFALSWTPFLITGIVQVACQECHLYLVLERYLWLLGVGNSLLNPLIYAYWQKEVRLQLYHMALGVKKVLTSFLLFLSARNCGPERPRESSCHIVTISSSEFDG
# TEST_DESCRIPTION: cAMP accumulation assay (cAMP Gs dynamic HTRF kit)
# EXPERIMENTAL_SETUP: CHO-K1 cells stably expressing hGPR119; cAMP accumulation; 4-parameter fit
pEC50: −log10 of the molar value.

# TEST_SMILES, pEC50
measured = [
    ("O=C(Cc1ccc(OCCC2CC3(CCN(c4ncc(Cl)cn4)CC3)C2)cc1F)N1CC(CNC[C@H](O)[C@@H](O)[C@H](O)[C@H](O)CO)C1", "6.00 to 7.00"),
    ("O=C(Cc1ccc(OCCCC2CC3(CCN(c4ncc(Cl)cn4)CC3)C2)cc1F)N1CC(CNC[C@H](O)[C@@H](O)[C@H](O)[C@H](O)CO)C1", "≥ 7.00"),
    ("O=C(Cc1ccc(OCCCC2CCN(c3ncc(Cl)cn3)CC2)cc1F)N1CC(O)(CNC[C@H](O)[C@H](O)[C@H](O)CO)C1", "≥ 7.00"),
]
